Record form. Attribute: normalized growth. Fill in for each entry.
- procedure-details: chemical genetic growth profiling, strain panel (AID 1159580);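 further: tested at 20 µM; growth read once vehicle control cultures reached saturation at 30 °C; 1 = growth at the plate median or of vehicle wells; lower values mean less growth of the strain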
- study-conditions: S. cerevisiae deletion strains, growth OD, locus YMR231W, strain pep5, active compounds read low
The campaign covered roughly 5,500 compounds. About 2,000 (36%) were called active. Not shown: some 18% with an inconclusive outcome. The list shows a part of the results.
Give bare numbers.

Enquiry: Name the reported normalized growth value associated with the compound C[N+](C)(C)CC(=O)[O-]
Return: 0.972

Enquiry: Name the reported normalized growth value associated with the compound C=C1CC[C@H](O)C/C1=C/C=C1\CCC[C@]2(C)C([C@H](C)/C=C/[C@H](C)C(C)C)CC[C@@H]12 (stereo partly specified)
Return: 1

Enquiry: Name the reported normalized growth value associated with the compound c1ccc(CC2=NCCN2)cc1
Return: 1.01

Would you mind listing normalized growth for each of the following compounds?
1. CCC1(c2ccccc2)C(=O)NCNC1=O
2. NC[C@@H]1O[C@H](O[C@@H]2[C@@H](CO)OC(O[C@@H]3[C@@H](O)[C@H](N)C[C@H](N)[C@H]3OC3O[C@H](CN)[C@@H](O)[C@H](O)[C@H]3N)[C@@H]2O)[C@H](N)[C@@H](O)[C@@H]1O (stereo partly specified)
3. CC(C)=CCc1c(O)cc2oc(C)cc(=O)c2c1O
4. CC1(C)S[C@@H]2[C@H](NC(=O)[C@H](NC(=O)N3CCNC3=O)c3ccccc3)C(=O)N2C1C(=O)O (stereo partly specified)

Return:
1: 1.01; 2: 1.03; 3: 0.981; 4: 0.985
